- measured.on: Spike S1 & S2 ECD (SARS-CoV-2) (UniProt P0DTC2)
- experiment.description: filter
- experimental.setup: iBudU at 14; other dU Tyr-dU; dC Nap-dC; SB18T0.01, 37 C
pKd: −log10 of the molar value.
readout: pKd

sequence_entry="GGGANANNANGNGNNNGANNGNNNGGANG [26874-29_142]" readout=pKd observed_result=9.43

* * *

- measured.on: Spike S1 & S2 ECD (SARS-CoV-2) (UniProt P0DTC2)
- experiment.description: filter
- experimental.setup: PPdU at 8; other dU Tyr-dU; dC Nap-dC; SB18T0.01, 37 C
pKd: −log10 of the molar value.
readout: pKd

sequence_entry="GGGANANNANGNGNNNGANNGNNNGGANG [26874-29_89]" observed_result=9.70

* * *

- measured.on: Spike S1 & S2 ECD (SARS-CoV-2)
- experiment.description: filter
- experimental.setup: iBudU at 23; other dU Tyr-dU; dC Nap-dC; SB18T0.01, 37 C
pKd: −log10 of the molar value.
readout: pKd

sequence_entry="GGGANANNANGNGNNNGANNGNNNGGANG [26874-29_144]" observed_result=9.24

* * *

- measured.on: Spike S1 & S2 ECD (SARS-CoV-2) (UniProt P0DTC2)
- experiment.description: filter
- experimental.setup: ThdU at 14 as printed (same as _102; position 10 probably meant); other dU Tyr-dU; dC Nap-dC; SB18T0.01, 37 C
readout: Kd (nM)

sequence_entry="GGGANANNANGNGHNNGANNGNNNGGANG [26874-29_100]" readout=Kd unit=nM observed_result=0.49

* * *

- measured.on: Spike S1 & S2 ECD (SARS-CoV-2)
- experiment.description: filter
- experimental.setup: MBndU at 23; other dU Tyr-dU; dC Nap-dC; SB18T0.01, 37 C
readout: Kd (pM)

sequence_entry="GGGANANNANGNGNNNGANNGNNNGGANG [26874-29_154]" measured_on="Spike S1 & S2 ECD (SARS-CoV-2)" unit=pM observed_result=430

* * *

- measured.on: Spike S1 & S2 ECD (SARS-CoV-2)
- experiment.description: filter
- experimental.setup: POPdU at 10; other dU Tyr-dU; dC Nap-dC; low plateau
readout: Kd (nM)

sequence_entry="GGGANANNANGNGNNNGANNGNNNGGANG [26874-29_121]" unit=nM observed_result=0.42

* * *

- measured.on: Spike S1 & S2 ECD (SARS-CoV-2)
- experiment.description: filter
- experimental.setup: BndU at 8; other dU Tyr-dU; dC Nap-dC; SB18T0.01, 37 C
readout: Kd (nM)

sequence_entry="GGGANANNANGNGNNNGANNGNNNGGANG [26874-29_59]" measured_on="Spike S1 & S2 ECD (SARS-CoV-2)" observed_result=0.18

* * *

- measured.on: Spike S1 & S2 ECD (SARS-CoV-2)
- experiment.description: filter
- experimental.setup: BPEdU at 23; other dU Tyr-dU; dC Nap-dC; SB18T0.01, 37 C
pKd: −log10 of the molar value.
readout: pKd

sequence_entry="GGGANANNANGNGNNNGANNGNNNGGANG [26874-29_155]" readout=pKd observed_result=9.77

* * *

- measured.on: Spike S1 & S2 ECD (SARS-CoV-2) (UniProt P0DTC2)
- experiment.description: filter
- experimental.setup: NapdU at 14; other dU Tyr-dU; dC Nap-dC; SB18T0.01, 37 C
pKd: −log10 of the molar value.
readout: pKd

sequence_entry="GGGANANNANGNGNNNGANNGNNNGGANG [26874-29_53]" readout=pKd observed_result=9.70

* * *

- measured.on: Spike S1 & S2 ECD (SARS-CoV-2) (UniProt P0DTC2)
- experiment.description: filter
- experimental.setup: MBndU at 8; other dU Tyr-dU; dC Nap-dC; low plateau
readout: Kd (pM)

sequence_entry="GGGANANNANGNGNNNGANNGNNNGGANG [26874-29_148]" measured_on="Spike S1 & S2 ECD (SARS-CoV-2) (UniProt P0DTC2)" unit=pM observed_result=460

* * *

- measured.on: Spike S1 & S2 ECD (SARS-CoV-2) (UniProt P0DTC2)
- experiment.description: filter
- experimental.setup: Y=Tyr-dU, p=Nap-dC, position 10 Trp-dU; Kd/Kd_20 0.24
readout: Kd (nM)

sequence_entry="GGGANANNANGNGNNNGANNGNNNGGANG [26874-29_60]" readout=Kd observed_result=0.098

* * *

- measured.on: Spike S1 & S2 ECD (SARS-CoV-2)
- experiment.description: filter
- experimental.setup: BFdU at 8; other dU Tyr-dU; dC Nap-dC; SB18T0.01, 37 C
readout: Kd

sequence_entry="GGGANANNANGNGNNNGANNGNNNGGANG [26874-29_88]" observed_result="0.19 nM"

* * *

- measured.on: Spike S1 (SARS-CoV-2)
- experiment.description: filter
- experimental.setup: Y=Tyr-dU, p=Nap-dC; printed CCTTGGGAYApYAYGpGYppGAppGpYpGGApGGAGAAGG [Tyr-dU: 9,12,14,18,27; Nap-dC: 11,16,19,20,23,24,26,28,32]
pKd: −log10 of the molar value.
readout: pKd

sequence_entry="CCTTGGGATACTATGCGTCCGACCGCTCGGACGGAGAAGG [26874-29_4 (SL1111)]" readout=pKd observed_result=8.49

* * *

- measured.on: Spike S1 & S2 ECD (SARS-CoV-2) (UniProt P0DTC2)
- experiment.description: filter
- experimental.setup: Y=Tyr-dU, p=Nap-dC, position 23 2NE-dU; very low plateau, faint spots
readout: Kd (nM)

sequence_entry="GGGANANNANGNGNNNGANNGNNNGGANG [26874-29_134]" readout=Kd observed_result=0.12

* * *

- measured.on: Spike S1 & S2 ECD (SARS-CoV-2)
- experiment.description: filter
- experimental.setup: MOEdU at 5; other dU Tyr-dU; dC Nap-dC; SB18T0.01, 37 C
readout: Kd (nM)

sequence_entry="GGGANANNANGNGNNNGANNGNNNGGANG [26874-29_106]" measured_on="Spike S1 & S2 ECD (SARS-CoV-2)" observed_result=0.66

* * *

- measured.on: Spike S1 & S2 ECD (SARS-CoV-2)
- experiment.description: filter
- experimental.setup: MOEdU at 14; other dU Tyr-dU; dC Nap-dC; SB18T0.01, 37 C
readout: Kd (pM)

sequence_entry="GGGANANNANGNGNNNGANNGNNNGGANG [26874-29_112]" measured_on="Spike S1 & S2 ECD (SARS-CoV-2)" readout=Kd observed_result=560

* * *

- measured.on: Spike S1 & S2 ECD (SARS-CoV-2) (UniProt P0DTC2)
- experiment.description: filter
- experimental.setup: BTdU at 8; other dU Tyr-dU; dC Nap-dC; SB18T0.01, 37 C
pKd: −log10 of the molar value.
readout: pKd

sequence_entry="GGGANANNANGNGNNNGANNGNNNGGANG [26874-29_118]" observed_result=9.41

* * *

- measured.on: Spike S1 & S2 ECD (SARS-CoV-2) (UniProt P0DTC2)
- experiment.description: filter
- experimental.setup: 2NEdU at 14; other dU Tyr-dU; dC Nap-dC; SB18T0.01, 37 C
pKd: −log10 of the molar value.
readout: pKd

sequence_entry="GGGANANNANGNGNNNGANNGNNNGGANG [26874-29_132]" observed_result=9.57

* * *

- measured.on: Spike S1 & S2 ECD (SARS-CoV-2) (UniProt P0DTC2)
- experiment.description: filter
- experimental.setup: BFdU at 23; other dU Tyr-dU; dC Nap-dC; SB18T0.01, 37 C
pKd: −log10 of the molar value.
readout: pKd

sequence_entry="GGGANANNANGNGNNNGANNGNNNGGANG [26874-29_94]" measured_on="Spike S1 & S2 ECD (SARS-CoV-2) (UniProt P0DTC2)" observed_result=9.32

* * *

- measured.on: Spike S1 & S2 ECD (SARS-CoV-2) (UniProt P0DTC2)
- experiment.description: filter
- experimental.setup: BPEdU at 8; other dU Tyr-dU; dC Nap-dC; low plateau
readout: Kd (nM)

sequence_entry="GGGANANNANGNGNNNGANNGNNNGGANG [26874-29_149]" unit=nM observed_result=0.47

* * *

- measured.on: Spike S2 ECD (SARS-CoV-2) (UniProt P0DTC2)
- experiment.description: filter
- experimental.setup: Y=Tyr-dU, p=Nap-dC; printed CCTTGYGpAApGpAppYYAYYpGGpYYGAAYGYGAGAAGG [Nap-dC: 8,11,13,15,16,22,25; Tyr-dU: 6,17,18,20,21,26,27,31,33]
readout: Kd (nM)

sequence_entry="CCTTGTGCAACGCACCTTATTCGGCTTGAATGTGAGAAGG [26876-13_4 (SL1115)]" readout=Kd observed_result=0.19
